All values here come from ChEMBL document CHEMBL5365503.

Measured pIC50 values are reported for all entries that follow.
- System: U-87 MG
- METHOD SUMMARY: Antiproliferative activity against human U-87 MG cells assessed as inhibition of cell proliferation incubated for 96 hrs by MTT assay
- Format: functional, cell-based, U-87MG ATCC
Answer as the number alone; pIC50 is minus log10 of concentration in mol/L.

These solved cases illustrate the format of a correct answer.
Query: Report pIC50 for "COc1cccc2c1nc(C(F)F)n2-c1nc(N2CCOCC2)nc(N2CCN(C(=S)SCC(=O)N3CCN(S(C)(=O)=O)CC3)CC2)n1"
Result: 5.90

Query: Report pIC50 for "COc1cccc2c1nc(C(F)F)n2-c1nc(N2CCOCC2)nc(N2CCN(C(=S)SCC(=O)N3CCN(C)CC3)CC2)n1"
Result: 5.78

Query: Report pIC50 for "COc1cccc2c1nc(C(F)F)n2-c1nc(N2CCOCC2)nc(N2CCN(C(=S)SCC(=O)N(C)C)CC2)n1"
Result: 5.96

Others:
Query: Report pIC50 for "FC(F)c1nc2ccccc2n1-c1nc(N2CCOCC2)nc(N2CCOCC2)n1"
Result: 6.89
